System: human T cells
Assay: Inhibition of 5-HT-dependent T Cell Proliferation
Assay type: cell-based
Settings: Homo sapiens, T-cell, monocyte-free human T cells stimulated with PWM and 5-HT; 3H-thymidine incorporation; 7 days
pIC50: −log10 of the molar value.
Recorded pIC50, one value per entry.

Some molecules with known pIC50 results, for comparison:
> print(dat)
                                   molecule  subject.of.test  value.reported
1  C=CC12c3ccccc3C(c3ccccc31)C1C(=O)N(CCCN3CCN(c4ccc(F)cc4)CC3)C(=O)C12 (stereo not shown) [Example 37]    human T cells          < 5.00
2  O=C1C2C3c4ccccc4C(c4ccccc43)C2C(=O)N1CCCN1CCN(c2ccccc2)CC1 (stereo not shown) [Example 7]    human T cells          < 5.00
3  O=C1C2C3c4ccccc4C(Cl)(c4ccccc43)C2C(=O)N1CCCN1CCN(c2ccc(F)cc2)CC1 (stereo not shown) [Example 35]    human T cells          < 5.00

pIC50 in this record for O=C1C2C3c4ccccc4C(c4ccccc43)C2C(=O)N1CCCN1CCN(c2cccc(Cl)c2)CC1 (stereo not shown) [Example 13] : < 5.00
